target: Cytochrome P450 2C9 (Homo sapiens); assay: Cytochrome panel assay with activity outcomes; settings: recombinant CYP, pro-luciferin dealkylation, luminescence, p450-cyp2c9; series mostly up to 57.1 µM
Screen size: about 16,000 compounds; about 4,000 (25%) were called active. About 26% were inconclusive and are not listed. Calls follow the shape of the dose curve; as a rule, active = well fitted curve in the direction sought with a large enough effect; inconclusive = small, poorly fitted or top-dose-only effect, or effect the other way; inactive = no such curve, though single readings can be large or run the other way. The list is a sample of the results.
Give one outcome, nothing more. List: T for active, F for inactive

Ask | Answer briefly: the call reported for COc1ccc(OC)c(C(=O)CSc2nnc(Cc3cccs3)n2CCc2ccccc2)c1 in this assay.
Reply | T

Ask | Answer briefly: the call reported for CCC(NC(=O)C1(C)CC1(Br)Br)c1ccc(C)cc1 (stereo not given) in this assay.
Reply | T

Ask | Answer briefly: the call reported for COc1ccc(NC(=O)NCc2cccn2C)c(OC)c1 in this assay.
Reply | F

Ask | Answer briefly: the call reported for CCCN(CC1CC1)c1nc(C)nc(Nc2c(Cl)cc(Cl)cc2Cl)c1Cl in this assay.
Reply | F

Ask | Answer briefly: the call reported for COc1cccc(Nc2ncc3nc(CCc4ccccc4)c(=O)n(Cc4cccs4)c3n2)c1 in this assay.
Reply | F

Ask | Answer briefly: the call reported for FC(F)(F)c1cc(CN2CCC3(CCNCC3)CC2)cc(C(F)(F)F)c1 in this assay.
Reply | F

Ask | Answer briefly: the call reported for C[N+](C)(C)CC[N+]1(C)Cc2c(Cl)c(Cl)c(Cl)c(Cl)c2C1 in this assay.
Reply | F

Ask | Answer briefly: the call reported for COc1ccc(C2/C(=C(/O)c3ccc(Cl)cc3)C(=O)C(=O)N2CCN2CCOCC2)c(OC)c1 (stereo not given) in this assay.
Reply | F

Ask | Answer briefly: the call reported for CC(=O)[C@H]1CC[C@@H]2[C@H]3CC=C4C[C@@H](O)CC[C@]4(C)[C@H]3CC[C@]12C in this assay.
Reply | F

Ask | Answer briefly: the call reported for CC(Sc1nnc(Cc2cccs2)n1C1CCCCC1)C(N)=O (stereo not given) in this assay.
Reply | F

====

target: Cytochrome P450 2C9 (Homo sapiens) (UniProt P11712); experiment: Cytochrome panel assay with activity outcomes; conditions: recombinant CYP, pro-luciferin dealkylation, luminescence, p450-cyp2c9; series mostly up to 57.1 µM
Sequence (P11712 whole entry, looked up): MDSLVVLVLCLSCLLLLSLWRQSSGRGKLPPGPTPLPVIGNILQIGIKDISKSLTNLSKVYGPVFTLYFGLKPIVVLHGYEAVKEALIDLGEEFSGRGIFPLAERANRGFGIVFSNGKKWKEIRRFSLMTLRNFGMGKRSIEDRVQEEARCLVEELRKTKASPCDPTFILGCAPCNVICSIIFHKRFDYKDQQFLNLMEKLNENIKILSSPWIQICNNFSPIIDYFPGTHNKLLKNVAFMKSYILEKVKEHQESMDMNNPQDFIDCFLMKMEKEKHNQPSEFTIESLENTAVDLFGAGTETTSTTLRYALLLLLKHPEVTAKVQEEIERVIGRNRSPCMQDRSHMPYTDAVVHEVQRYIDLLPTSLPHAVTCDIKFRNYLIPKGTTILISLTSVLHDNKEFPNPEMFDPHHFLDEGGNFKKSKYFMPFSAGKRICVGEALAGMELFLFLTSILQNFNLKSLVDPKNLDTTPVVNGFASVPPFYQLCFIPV
The whole screen tested about 16,000 compounds, of which about 4,000 (25%) were called active. Roughly 26% stayed inconclusive and do not appear here. Calls come from the whole dose curve; as a rule, active = well fitted curve in the direction sought with a large enough effect; inconclusive = small, poorly fitted or top-dose-only effect, or effect the other way; inactive = no such curve, though single readings can be large or run the other way. Not all results are given here.
Give one outcome, nothing more. List: label 1 for active, label 0 for inactive

Ask | Answer briefly: the call reported for CC(/C=C/c1ccco1)=N/NC(=O)c1ccccc1Cl in this assay.
Reply | label 0

Ask | Answer briefly: the call reported for CCCC(=O)Nc1ccc2nc(SCC(=O)Nc3ccc(N4CCOCC4)c(Cl)c3)sc2c1 in this assay.
Reply | label 1

Ask | Answer briefly: the call reported for Cc1ccc(NC(=O)c2cc(N3C(=O)C4CC=CCC4C3=O)ccc2N2CCOCC2)cc1Cl (stereo not given) in this assay.
Reply | label 1

Ask | Answer briefly: the call reported for NC(=O)c1ccc(N2CCCCC2)c(N2C(=O)C3CC=CCC3C2=O)c1 (stereo not given) in this assay.
Reply | label 0

Ask | Answer briefly: the call reported for O=C(/C=C/c1ccco1)NC(=S)Nc1ccc(N2CCOCC2)c(Cl)c1 in this assay.
Reply | label 1

====

Target: Cytochrome P450 2C9 (Homo sapiens) (UniProt P11712)
Assay: Cytochrome panel assay with activity outcomes
Settings: recombinant CYP, pro-luciferin dealkylation, luminescence, p450-cyp2c9; series mostly up to 57.1 µM
Description: The P450 gene superfamily is involved in the metabolism and clearance of xenobiotics. This assay used various human CYP P450 isozymes to measure the dealkylation of various pro-luciferin substrates to luciferin. The luciferin is then measured by luminescence after the addition of a luciferase detection reagent. […] Inhibitors and some substrates limit the production of luciferin, and decrease measured luminescence. […] 8, Detection, 1 sec, ViewLux luminescent read […]
About 4,000 (25%) of roughly 16,000 compounds were called active. About 26% were inconclusive and are not listed. Not all results are given here.
Could you please report measured AC50 for the items listed next?

Ask | Query the reported AC50 for Cytochrome P450 2C9 (Homo sapiens) (UniProt P11712); item: CCC/C=C(\CCC)C(NS(=O)(=O)c1ccc(Cl)cc1)c1ccc(C(=O)OC)cc1 (stereo not given)
Reply | 3.16 µM (active)

Ask | Query the reported AC50 for Cytochrome P450 2C9 (Homo sapiens) (UniProt P11712); item: CCC/C=C(\CCC)C(NS(=O)(=O)c1ccc(C(F)(F)F)cc1)c1ccc(C(=O)OC)cc1 (stereo not given)
Reply | 3.16 µM (active)

Ask | Query the reported AC50 for Cytochrome P450 2C9 (Homo sapiens) (UniProt P11712); item: CCC/C=C(\CCC)C(NS(=O)(=O)CC12CCC(CC1=O)C2(C)C)c1ccc(C(=O)OC)cc1 (stereo not given)
Reply | 15.8 µM (active)

Ask | Query the reported AC50 for Cytochrome P450 2C9 (Homo sapiens) (UniProt P11712); item: CCOC(=O)c1c(-c2ccc(C)o2)csc1NC(=S)NC(=O)N(C)C
Reply | 10 µM (active)
